Reported OD450 values for a set of binders
TARGET OR TEST SYSTEM: T1, Human CD19-his protein (human, UniProt P15391 20-291)
T1 construct: bought protein; also called human CD19 protein; recombinant human CD19-His; not shown: His tag
T1 sequence (looked up): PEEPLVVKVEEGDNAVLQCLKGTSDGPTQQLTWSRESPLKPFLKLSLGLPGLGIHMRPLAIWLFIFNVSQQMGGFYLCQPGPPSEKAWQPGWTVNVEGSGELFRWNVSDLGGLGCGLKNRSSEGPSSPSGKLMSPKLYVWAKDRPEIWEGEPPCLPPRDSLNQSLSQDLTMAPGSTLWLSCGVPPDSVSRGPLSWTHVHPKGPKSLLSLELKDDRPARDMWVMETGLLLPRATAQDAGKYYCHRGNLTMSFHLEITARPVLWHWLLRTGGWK
ASSAY EXPLANATION: ELISA, antibody at 100 nM
Experimental: Human CD19-his protein (purchased from ACROBiosystems, catalog number: CD9-H52H2) was diluted with PBS to a final concentration of 4 μg/mL, and then added to a 96-well ELISA plate at 100 μl/well. […] The OD450 nm values were read by an ELISA microplate reader (Multimode Plate Reader, EnSight, purchased from Perkin Elmer).
PROPERTY MEASURED: OD450

- F4.48.12 (antibody, human IgG1, V domains shown, human-murine chimeric antibody, human IgG1) VH: QMQLKESGPGLVAPSQSLSITCTVSGFSLTDYGVSWIRQPPGKGLEWLGVIWGSGSTFYNSALTSRLSISKDNSKSQVFLKMNSLQTADTAMYFCAKHHYYGGSFAMDYWGQGTSVTVSS VL: DIQMTQASSSLSASLGDRVTISCKTSQDISNYLNWYQQKPDGTFKLLIHYTSRLHSGVPSRFSGSGSGSDYSLTISNLEREDIATYFCQQGNSLPYTFGGGTKLEMK: 1.93
- F4.41.1 (antibody, human IgG1, V domains shown, human-murine chimeric antibody, human IgG1) VH: QVQLQQSGAELVRPGTSVKVSCKASGYAFTNYLIEWVKQRPGQGLEWIGVINPGSGDTLYNEKFKGKATLTADKSSTTAYMQLSGLTSDVSAIYFCARSPPITTIVADYFDYWGQGTTLTVSS VL: DIQMTQTTSSLSASLGDRVTISCRASQDISNYLNWYQQKPDGTVKLLIYYTSRLHSGVPSRFSGSGSGADYSLTISNLEQEDIATYFCQQGKTLPYTFGGGTKLEIK: 0.68
- F3.81.2 (antibody, human IgG1, V domains shown, human-murine chimeric antibody, human IgG1) VH: QVQLQQPGAELVMPGASVKLSCKASAYTFTNYWMHWVKQRPGHGLEWIGEIDPSDSYTDYNQNFKAKATLTVDKSSSTAYMQLSSLTSEDSAVYYCARLMGRYFDVWGTGTTVTVSS VL: DIVMTQSHKFMSTSVGDRVSITCKASQDVSAAVAWYQQKPGQSPKLLINSASYRYTGVPDRFTGSGSGTDFTFTISSVQAEDLAVYYCQQHYSTPLTFGAGTKLELR: 1.4
- F3.83.9 (antibody, human IgG1, V domains shown, human-murine chimeric antibody, human IgG1) VH: DVQLQESGPGLVKPSQSLSLTCSVTGYSITSGYYWNWIRQFPGNKLEWMGYISYDGGNNYNPSLKNRISITRDTSKNQFFLKLNSVTTEDTATYFCAREDYSNWYFDVWGTGTTVTVSS VL: DIVLTQSPASLAVSLGQRATISCRASQSVSKSSYSYMHWYQQKPGQSPKLLIKYASILKSGVPARFSGSGSGTDFTLNIHPVEEEDTATYYCQHSWEIPWTFGGGTKLEIK: 0.94
- F4.58.6 (antibody, human IgG1, V domains shown, human-murine chimeric antibody, human IgG1) VH: QVQLQQPGAELVKPGASVKLSCKASGYTFTSYWMHWVKQRPGQGLEWIGEIDPSDSYSNYNQKFKGKATLTVDKSSSTAYMQLSSLTSEDSAVYYCARSNYGSSYGYFDVWGAGTTVTVSS VL: QIVLTQSPAIMSASPGEKVTMTCSVSSSLSYMHWYQQKPGTSPKRWIYDTSKLASGVPARFSGSGSGTSYSLTISSMEAEDAATYYCHQRSSYPTFGGGTKLEIK: 0.94
